Tested on: 616215-338-R-J1-PDC complex spheroid viability;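 note: spheroids exposed to compounds for one week before readout; percent viability relative to DMSO vehicle wells taken as 100%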
ASSAY_NAME: Anticancer human tumor 616215-338-R-J1-PDC patient-derived colon adenocarcinoma cell line growth inhibition [POLQ]
TEST_CONDITIONS: second compound 3.16 µM; first compound 0.1 µM; hits give low values
QUANTITY: viability, T/C (%)
Numbers only, in %.

Examples from the recorded data:
## Input Please look at this compound and report its viability, T/C: Nc1ccn(C2OC(CO)C(O)C2(F)F)c(=O)n1 (stereo unspecified) + Cc1cccc(N(C)C(=O)C2C(O)CCN2c2nc(C)cc(C(F)(F)F)c2C#N)c1
## Output 40.4

## Input Note viability, T/C for the compound shown: COc1cccc2c1C(=O)c1c(O)c3c(c(O)c1C2=O)CC(O)(C(=O)CO)CC3OC1CC(N)C(O)C(C)O1 (stereo unspecified) + Nc1ccc(C#CCN(C(=O)Cc2ncc(C(F)(F)F)cc2C(F)(F)F)c2ccc(F)cc2)nn1
## Output 48

## Input Please indicate viability, T/C recorded for COc1cccc(OCCCN)c1-c1cc(Nc2cnc(C#N)cn2)n[nH]1 + Cc1cccc(N(C)C(=O)C2C(O)CCN2c2nc(C)cc(C(F)(F)F)c2C#N)c1
## Output 38.4

## Input Please indicate viability, T/C recorded for COc1cc2cc(C(=O)CCC(=O)O)sc2cc1OC + COC1C(OC(N)=O)C(O)C(Oc2ccc3c(O)c(NC(=O)c4ccc(O)c(CC=C(C)C)c4)c(=O)oc3c2C)OC1(C)C
## Output 99.9

## Input Indicate the recorded viability, T/C value for this compound: CC(C)n1c(=O)n(C)c2cnc3cc(F)c(-c4ccc(OCCCN5CCCCC5)nc4)cc3c21 + Cc1cccc(N(C)C(=O)C2C(O)CCN2c2nc(C)cc(C(F)(F)F)c2C#N)c1
## Output 101

For each listed entry, give its viability, T/C.
1. CC1COCCN1c1cc(C2(O)CC3CCC(C2)O3)c2cnn(-c3ccn[nH]3)c2n1 (stereo unspecified) + Nc1ccc(C#CCN(C(=O)Cc2ncc(C(F)(F)F)cc2C(F)(F)F)c2ccc(F)cc2)nn1
2. CCc1c2c(nc3ccc(O)cc13)-c1cc3c(c(=O)n1C2)COC(=O)[C@]3(O)CC + Cc1cccc(N(C)C(=O)C2C(O)CCN2c2nc(C)cc(C(F)(F)F)c2C#N)c1

## Output
[54.9, 41.6]

Batch request: viability, T/C per item, same order as input.
1. CNCc1ccc(-c2[nH]c3cc(F)cc4c3c2CCNC4=O)cc1 + Nc1ccc(C#CCN(C(=O)Cc2ncc(C(F)(F)F)cc2C(F)(F)F)c2ccc(F)cc2)nn1
2. CC(C)n1c(=O)n(C)c2cnc3cc(F)c(-c4ccc(OCCCN5CCCCC5)nc4)cc3c21 + COC1C(OC(N)=O)C(O)C(Oc2ccc3c(O)c(NC(=O)c4ccc(O)c(CC=C(C)C)c4)c(=O)oc3c2C)OC1(C)C
3. CC1COCCN1c1cc(C2(S(C)(=N)=O)CC2)nc(-c2ccnc3[nH]ccc23)n1 (stereo unspecified) + Cc1cccc(N(C)C(=O)C2C(O)CCN2c2nc(C)cc(C(F)(F)F)c2C#N)c1
4. CCc1cc2c(N3CCc4c(cc(Cn5ccnc5)cc4-c4cn(C)nc4C(F)(F)F)C3=O)ccnc2c(OC)n1 + COC1C(OC(N)=O)C(O)C(Oc2ccc3c(O)c(NC(=O)c4ccc(O)c(CC=C(C)C)c4)c(=O)oc3c2C)OC1(C)C

## Output
1: 93.3; 2: 111; 3: 96; 4: 100
